The measurements presented in this section are drawn from patent US20260015350A1.

# MEASURED_ON: KRas^G12D (Homo sapiens, UniProt P01116, G12D)
# Construct: Biotinylated KRas (corresponding to amino acids 1-169, produced at Accelegan Inc.); biotin (biotinylated); purchased Accelegan Inc
# Sequence (P01116 1-169 isoform P01116-2 G12D): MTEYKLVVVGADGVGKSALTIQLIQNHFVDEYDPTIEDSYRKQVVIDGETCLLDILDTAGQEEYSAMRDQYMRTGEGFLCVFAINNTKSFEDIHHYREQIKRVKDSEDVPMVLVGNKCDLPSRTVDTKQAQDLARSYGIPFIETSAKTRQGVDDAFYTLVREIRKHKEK
# PROTOCOL: KRas binding assay (TR-FRET tracer displacement), KRas G12D
MEASURED_QUANTITY: IC50 (nM)

Below, each entry is followed by its recorded IC50 result.
COMPOUND	UNIT_TAG	RECORDED_RESULT
CN(C)C(=O)c1cc2n(n1)CCCN(c1nc(OCC34CCCN3CCC4)nc3c(F)c(-c4c(C5CC5)c(Cl)cc5[nH]ncc45)ncc13)C2 [Example 881]	nM	2
CCc1c(F)ccc2cc(O)cc(-c3ncc4c(N5C[C@H](F)C[C@@H](OC)C5)nc(OC[C@@]56CCCN5C[C@H](F)C6)nc4c3F)c12 [Example 557]	nM	12

a = CCc1c(F)ccc2cc(O)cc(-c3ncc4c(N[C@@H](C)c5cc(C(=O)N(C)C)nn5C)nc(OC[C@@]56CCCN5C[C@H](F)C6)nc4c3F)c12 [Example 650]
b = CCc1c(F)ccc2cc(O)cc(-c3ncc4c(N5CCCC(S(N)(=O)=O)CC5)nc(OC[C@@]56CCCN5C[C@H](F)C6)nc4c3F)c12 (stereo partly drawn) [Example 631]
Record comparison, field IC50: mark the lower of a and b . Pick one; state its label. b
(b: 9 nM, a: 14 nM)

----------
# MEASURED_ON: KRas^G12V (Homo sapiens, UniProt P01116, G12V)
# Construct: Biotinylated KRas (corresponding to amino acids 1-169, produced at Accelegan Inc.); biotin (biotinylated); purchased Accelegan Inc
# Sequence (P01116 1-169 isoform P01116-2 G12V): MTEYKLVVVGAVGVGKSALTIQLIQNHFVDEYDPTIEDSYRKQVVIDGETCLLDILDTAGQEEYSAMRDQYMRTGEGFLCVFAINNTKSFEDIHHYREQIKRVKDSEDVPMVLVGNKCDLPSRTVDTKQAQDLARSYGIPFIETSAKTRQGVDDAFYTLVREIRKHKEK
# PROTOCOL: KRas binding assay (TR-FRET tracer displacement), KRas G12V
MEASURED_QUANTITY: IC50 (nM)

Below, each entry is followed by its recorded IC50 result.
                                   compound  unit_tag  recorded_result
0  CCc1c(F)ccc2cc(O)cc(-c3ncc4c(N5CCCC6(CCNS(=O)(=O)N6)C5)nc(OC[C@@]56CCCN5C[C@H](F)C6)nc4c3F)c12 (stereo partly drawn)        nM                6
1  CCc1c(F)ccc2cc(O)cc(-c3ncc4c(N5CC6CCC(C5)S6)nc(OC[C@@]56CCCN5C[C@H](F)C6)nc4c3F)c12        nM               13

1 = Cc1cc2[nH]nnc2c(-c2ncc3c(N4CCCC5(C4)NC(=O)NC5=O)nc(OCC45CCCN4CCC5)nc3c2F)c1C (stereo not drawn)
2 = CCc1c(F)ccc2cc(O)cc(-c3ncc4c(N5CCCC(S(N)(=O)=O)CC5)nc(OC[C@@]56CCCN5C[C@H](F)C6)nc4c3F)c12 (stereo partly drawn)
3 = Oc1cc(-c2ncc3c(N4C[C@@H]5C[C@H](C4)[C@H](O)C5)nc(OC[C@@]45CCCN4C[C@H](F)C5)nc3c2F)c2ccccc2c1F
Please order the records by their reported IC50, lowest number first. # answer = labels listed in requested order 2, 3, 1

----------
# MEASURED_ON: KRas^WT (Homo sapiens)
# Construct: Biotinylated KRas (corresponding to amino acids 1-169, produced at Accelegan Inc.); biotin (biotinylated); purchased Accelegan Inc
# Sequence (P01116 1-169 isoform P01116-2): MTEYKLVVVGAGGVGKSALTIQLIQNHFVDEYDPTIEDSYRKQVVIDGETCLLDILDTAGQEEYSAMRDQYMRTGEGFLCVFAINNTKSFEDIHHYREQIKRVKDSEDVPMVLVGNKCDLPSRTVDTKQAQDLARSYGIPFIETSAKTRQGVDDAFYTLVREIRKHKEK
# PROTOCOL: KRas binding assay (TR-FRET tracer displacement), KRas WT
# DETAILS: TR-FRET tracer displacement, KRas WT
MEASURED_QUANTITY: IC50 (nM)

a = Cc1cc2[nH]ccc2c(-c2ncc3c(N4CCC[C@@](C)(O)C4)nc(OCC45CCCN4CCC5)nc3c2F)c1C
b = C[C@@H]1C[C@@H]1c1c(Cl)cc(O)cc1-c1ncc2c(N3CCCn4nc(C(=O)N(C)C)cc4C3)nc(OC[C@@]34CCCN3C[C@H](F)C4)nc2c1F
c = Oc1cc(-c2ncc3c(N4C[C@@H]5C[C@H](C4)[C@H](O)C5)nc(OC[C@@]45CCCN4C[C@H](F)C5)nc3c2F)c2ccccc2c1Br
d = Cc1ccc2c(-c3ncc4c(N5C[C@@H]6C[C@H](C5)[C@H](O)C6)nc(OC[C@@]56CCCN5C[C@H](F)C6)nc4c3F)cc(O)cc2c1
// sort listed items: IC50 descending # answer = labels listed in requested order a, c, d, b
(a: 3420 nM, c: 754 nM, d: 117 nM, b: 4 nM)
